Experiment: MELAS cybrid and Rieske KO viability enhancers – cell-based, MELAS cybrids, Rieske KO mouse fibroblasts, CellTiter-Glo, primary screen (AID 1508586);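 also: z relative to plate mean and SD of compound and empty wells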
Details: Rieske KO mouse fibroblast survival, low glucose, CellTiter-Glo 72 h
Hi there, I'd appreciate the recorded z-score for every entry that follows.
// keep it numeric: no unit symbol after the value

// query z-score value for entry CCCCC(F)(F)C(=O)CCC1C(O)CC(=O)C1CCCCCCC(=O)O (centres undefined)
-0.0235

Follow-up item: "Nc1nonc1C(=Nc1ccc(F)c(Cl)c1)NO"
1.22

Follow-up item: "O=S(=O)(O)CCN1CCOCC1"
-0.75

Follow-up item: COc1ccc(CC(NC(=O)C(C)NC(=O)CN2CCOCC2)C(=O)NC(Cc2ccccc2)C(=O)[C@]2(C)CO2)cc1 (some centres undefined)
-7.62

Follow-up item: CCC(C)C(NC(=O)C(CCC(=O)O)NC(=O)C(CC(C)C)NC(=O)C1CN=C(C(N)C(C)C)S1)C(=O)NC1CCCCNC(=O)C(CC(N)=O)NC(=O)C(CC(=O)O)NC(=O)C(Cc2cnc[nH]2)NC(=O)C(Cc2ccccc2)NC(=O)C(C(C)CC)NC(=O)C(CCCN)NC1=O (centres undefined)
-0.261

Follow-up item: C=C1C(=O)OC2C1CCC(C)=CCC[C@@]1(C)OC21 (some centres undefined)
-0.281

Follow-up item: "O=C(O)CCc1c(C(=O)O)[nH]c2cc(Cl)cc(Cl)c12"
0.122

Follow-up item: "O=C(O)CNC(=O)NC1CCCCC1"
-0.24

Follow-up item: "COc1nc2ccccc2cc1-c1nnc2ccccn12"
-1.23

Follow-up item: CCCC(=O)O[C@@]1(C(=O)COC(C)=O)CC[C@H]2[C@@H]3CC(F)C4=CC(=O)C=C[C@]4(C)[C@]3(F)C(O)C[C@@]21C (some centres undefined)
-0.145

Follow-up item: N#CC1CCCN1C(=O)CNC12CC3CC(CC(O)(C3)C1)C2 (centres undefined)
0.11

Follow-up item: "O=C1CCCc2occ(C(=O)N3CCc4[nH]nc(Cc5ccccc5)c4C3)c21"
-0.284

Follow-up item: CCOC(=O)c1csc(CCNC2CCc3c(c(C(=O)N4CCc5ccccc5C4)nn3C)C2)n1 (centres undefined)
0.117

Follow-up item: CCN1C(=O)N(CC(N)=O)C(=O)C12CCN(CC(C)Cc1ccc3c(c1)OCO3)CC2 (centres undefined)
-0.343

Follow-up item: "CNC(=O)c1ccccc1Sc1ccc2c(C=Cc3ccccn3)n[nH]c2c1"
-0.442

Follow-up item: CN1[C@@H]2CC(OC(=O)C(CO)c3ccccc3)C[C@H]1[C@@H]1O[C@H]12 (some centres undefined)
0.736

Follow-up item: "COc1ccc(C(=O)Nc2c(Cl)cncc2Cl)cc1OC1CCCC1"
0.781

Follow-up item: "O=C1[C@@H]2C[C@@H](O)CN2C(=O)[C@H]2CN(Cc3ccc(CN4CCCCC4)s3)CCN12"
-0.745

Follow-up item: "Cc1[nH]cnc1CNc1cc(C(=O)Nc2cccc(N(C)C)c2)cc(S(=O)(=O)N2CCCC2)c1"
-0.954

====

Assay: growth inhibition, single agents and combos, HTB85, cell-based, BGB or cisplatin IC20 combos, synergistic combos for chromothripsis tumors (AID 1671453);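 also: cells exposed for 96 hours before readout; 0% = vehicle DMSO and 100% = high DMSO killing control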
Conditions: HTB85 osteosarcoma cells, drug combinations, single agent, at 5 µM, stronger effect = higher value
Use 50% as the dividing line for inhibition, with the line itself on the Y side and lower values as N.

Does the compound Cc1cn(C2C=CC(CO)O2)c(=O)[nH]c1=O (stereo unspecified) have recorded inhibition that is 50% or more?
N

Follow-up item: "C[C@@H]1COCCN1c1cc(C2(S(C)(=O)=O)CC2)nc(-c2cccc3[nH]ccc23)n1"
Y

Follow-up item: NC(=O)c1cccc2[nH]c(-c3ccc(C4CCCN4)cc3F)nc12 (stereo unspecified)
Y

Follow-up item: "O=C1C(=Cc2cccnc2)C(=O)c2ccccc21"
N

Follow-up item: O=c1[nH]cnc2c1ncn2C1CCC(CO)O1 (stereo unspecified)
N

Follow-up item: "Cn1cnc2[nH]c(=O)[nH]c(=O)c21"
N

Follow-up item: C=C(C)C1CCC2(C(=O)O)CCC3(C)C(CCC4C5(C)CCC(O)C(C)(C)C5CCC43C)C12 (stereo unspecified)
N

Follow-up item: "CC(C)(C#N)c1ccc(N2C(=O)OCc3cnc4ccc(-c5cnc6ccccc6c5)cc4c32)cc1"
N

Follow-up item: "CN(C)C(=S)NN=C(c1ccccn1)c1ccccn1"
Y

Follow-up item: CCC(C)C(=O)OC1CC(C)C=C2C=CC(C)C(CCC3CC(O)CC(=O)O3)C21 (stereo unspecified)
Y

Follow-up item: Nc1ncn(C2OC(CO)C(O)C2O)c(=O)n1 (stereo unspecified)
N

The measurements presented in this section are drawn from PubChem BioAssay.
